target: UniProt P33261; experiment: Inhibition of CYP2C19 in human liver microsomes assessed as enzyme-mediated metabolite formation at 0.1 uM using (S)-mephenytoin as substrate incubated for 5 mins followed by NADPH addition measured after 30 mins by LC-MS/MS analysis relative to control; type: ADME; design: scale not given: the % may be the effect or the level left; conditions: probe (S)-mephenytoin, read-out: Activity
Sequence (P33261 whole entry): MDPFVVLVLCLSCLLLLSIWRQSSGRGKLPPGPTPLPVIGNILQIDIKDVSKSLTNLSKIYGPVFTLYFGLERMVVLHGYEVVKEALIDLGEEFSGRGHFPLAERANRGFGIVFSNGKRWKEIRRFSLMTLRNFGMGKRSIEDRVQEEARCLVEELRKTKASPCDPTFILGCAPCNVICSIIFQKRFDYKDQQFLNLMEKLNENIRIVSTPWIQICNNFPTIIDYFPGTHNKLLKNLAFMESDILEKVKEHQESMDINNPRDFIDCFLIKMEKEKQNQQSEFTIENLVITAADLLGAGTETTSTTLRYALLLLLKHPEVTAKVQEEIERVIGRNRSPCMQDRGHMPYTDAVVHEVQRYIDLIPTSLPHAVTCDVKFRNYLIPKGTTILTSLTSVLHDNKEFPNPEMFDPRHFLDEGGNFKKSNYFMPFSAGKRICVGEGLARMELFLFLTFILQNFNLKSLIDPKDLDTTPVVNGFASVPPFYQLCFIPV
endpoint-name: activity at 0.5 h, 0.1 µM (%)
Reply with just the number (in %).

Given the compound `CCCCCCCC(=O)CCc1ccc(O)c(OC)c1` , what is its reported activity at 0.5 h, 0.1 µM?
98.4

---

target: Cytochrome P450 3A4 (Homo sapiens); assay: Inhibition of CYP3A4 in human liver microsomes using testosterone as substrate preincubated for 20 mins followed by substrate addition measured after 30 mins in presence of NADPH by LC-MS/MS analysis; type: ADME
Sequence (P08684 whole entry): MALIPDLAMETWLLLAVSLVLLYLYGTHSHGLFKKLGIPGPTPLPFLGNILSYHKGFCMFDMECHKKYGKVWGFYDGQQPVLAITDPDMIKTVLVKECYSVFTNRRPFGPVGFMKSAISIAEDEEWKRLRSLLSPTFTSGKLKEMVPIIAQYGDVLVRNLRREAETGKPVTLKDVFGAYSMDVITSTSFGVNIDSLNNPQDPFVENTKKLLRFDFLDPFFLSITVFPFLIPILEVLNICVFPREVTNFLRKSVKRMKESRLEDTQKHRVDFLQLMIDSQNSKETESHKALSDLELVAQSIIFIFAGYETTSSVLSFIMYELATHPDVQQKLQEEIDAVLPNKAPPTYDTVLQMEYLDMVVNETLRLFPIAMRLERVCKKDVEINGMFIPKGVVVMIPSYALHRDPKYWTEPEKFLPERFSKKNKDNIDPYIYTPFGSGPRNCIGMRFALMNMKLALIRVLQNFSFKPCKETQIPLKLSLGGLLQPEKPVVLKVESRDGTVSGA
endpoint-name: IC50

Given the molecule `CCCCCCCC(=O)CCc1ccc(O)c(OC)c1` , what is its reported IC50?
> 30 µM
